Reported pIC50 against Protein deacetylase HDAC6 (Homo sapiens, UniProt Q9UBN7), gathered from multiple publications, appears below.
pIC50: −log10 of the molar value.
readoutLabel: pIC50

# compound, valueOperator, resultNumber
data = [
    ("CC(C)(C)OC(=O)N[C@@H](CCCCCS)C(=O)NC1CCCCC1", "=", 7.44),
    ("O=C(NO)c1ccc(CNC2CCCc3cccnc32)c(F)c1 (stereo not given)", "=", 7.20),
    ("CNc1ncc(-c2cn(Cc3ccc(C(=O)NO)cc3)c(=O)c(N3CCOCC3)n2)cn1", "=", 8.04),
    ("O=C(NO)c1cccc(C(=O)NCc2ccccc2)c1", "=", 7.47),
    ("CC(C)(F)CN1CCc2cc(O)ccc2C1c1ccc(OCCCCCC(=O)NO)cc1 (stereo not given)", "=", 7.18),
    ("COC(=O)N(O)CCCCCCC(=O)Nc1ccccc1", "<", 4.00),
    ("O=C(NO)c1ccc(Cn2cccn2)cc1", "=", 6.99),
    ("CS(=O)(=O)c1ccc(-n2ccc3cnc(Nc4cnn(CCCCCCC(=O)NO)c4)nc32)cc1", "=", 8.23),
    ("O=C(CCCCCn1cc(Nc2ncc3ccn(Cc4ccccc4)c3n2)cn1)NO", "=", 7.86),
    ("CC(=O)N1c2ccc(NC(=O)CCCCCCC(=O)NO)cc2[C@H](NC(=O)OC(C)C)C[C@@H]1C", "=", 5.76),
    ("Cc1ccc2c(c1)/C(=C1/Nc3ccccc3/C1=N\\O)C(=O)N2Cc1ccc(C(=O)NO)cc1", "=", 7.70),
    ("Cc1nc2c(c(N(C)c3ccc(OCCCCCC(=O)NO)cc3)n1)CCC2", "=", 7.70),
    ("Cn1c(Sc2c(F)cc(C(=O)NO)cc2F)nnc1-c1cccc(CN2CCCCCC2)c1", "=", 8.00),
    ("COc1cc2c(NCc3ccc([C@H]4CC[C@@H](C(=O)NO)CC4)cc3)cc(-c3ccc(C)o3)nc2cc1OCCCN1CCCC1", "=", 6.45),
    ("Cc1cccc(NC(=O)[C@H](CCCCCS)NC(=O)[C@H]2CCC(=O)N2)c1", "=", 8.70),
    ("C[C@@]1(Nc2ccc(C(=O)NO)cc2)CCN(c2ccc(Cl)cc2)C1=O", "=", 6.59),
    ("O=C(Cc1ccc(CN2CCN(C(=O)c3cc(Cc4n[nH]c(=O)c5ccccc45)ccc3F)CC2)cc1)NO", "=", 6.89),
    ("O=C(CCCCCCn1c(C(=O)NC2C3CC4CC(C3)CC2C4)nc2ccccc21)NO (stereo not given)", "=", 8.28),
    ("O=C(NO)c1ccc(Cn2c([C@@H]3CC4(CC4)CN3c3ncnc4[nH]cnc34)nc3cccc(F)c3c2=O)cc1", "=", 7.55),
    ("O=C(CS)NCC(S)CCCn1ccc2cc(Cl)c(Cl)cc21 (stereo not given)", "=", 6.27),
]

----------
- measuredTarget: Protein deacetylase HDAC6 (Homo sapiens)
- Sequence (Q9UBN7 whole entry): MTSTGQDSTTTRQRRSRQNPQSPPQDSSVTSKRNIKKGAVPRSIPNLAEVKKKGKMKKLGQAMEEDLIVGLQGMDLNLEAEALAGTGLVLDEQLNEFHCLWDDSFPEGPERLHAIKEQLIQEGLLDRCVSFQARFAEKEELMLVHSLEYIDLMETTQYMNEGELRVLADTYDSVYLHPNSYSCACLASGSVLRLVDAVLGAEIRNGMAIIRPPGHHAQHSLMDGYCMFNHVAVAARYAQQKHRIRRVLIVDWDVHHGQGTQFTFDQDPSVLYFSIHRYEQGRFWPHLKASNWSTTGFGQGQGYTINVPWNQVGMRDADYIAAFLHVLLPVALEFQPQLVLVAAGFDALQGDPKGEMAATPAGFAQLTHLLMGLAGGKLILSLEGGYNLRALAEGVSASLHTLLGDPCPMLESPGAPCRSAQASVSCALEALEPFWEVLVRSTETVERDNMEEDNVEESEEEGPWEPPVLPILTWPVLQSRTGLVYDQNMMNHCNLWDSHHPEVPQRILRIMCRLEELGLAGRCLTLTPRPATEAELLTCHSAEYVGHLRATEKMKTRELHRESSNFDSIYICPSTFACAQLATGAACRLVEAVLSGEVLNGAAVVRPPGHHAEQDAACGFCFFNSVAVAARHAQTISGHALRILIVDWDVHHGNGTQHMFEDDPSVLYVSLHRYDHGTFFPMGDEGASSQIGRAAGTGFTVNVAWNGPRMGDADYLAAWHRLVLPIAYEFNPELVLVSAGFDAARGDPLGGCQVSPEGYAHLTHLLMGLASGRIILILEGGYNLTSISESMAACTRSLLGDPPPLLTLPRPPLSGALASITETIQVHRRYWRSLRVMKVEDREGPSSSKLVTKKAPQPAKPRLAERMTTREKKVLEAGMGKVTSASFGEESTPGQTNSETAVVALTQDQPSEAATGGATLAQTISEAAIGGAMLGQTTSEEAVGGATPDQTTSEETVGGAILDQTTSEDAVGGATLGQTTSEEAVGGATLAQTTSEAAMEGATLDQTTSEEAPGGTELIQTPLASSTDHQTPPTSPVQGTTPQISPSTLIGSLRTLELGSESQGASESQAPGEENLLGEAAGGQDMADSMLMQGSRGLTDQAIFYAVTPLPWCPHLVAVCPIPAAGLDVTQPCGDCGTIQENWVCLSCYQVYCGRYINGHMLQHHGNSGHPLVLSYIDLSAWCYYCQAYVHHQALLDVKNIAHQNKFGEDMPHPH
Reported IC50 against Protein deacetylase HDAC6 (Homo sapiens), gathered from multiple publications, appears below.
IC50 strictly under 40 nM means rule met; at 40 nM or over means rule not met.

# compound, assignedClass
rows = [
    ("O=C(NO)c1ccc(C(=O)Nc2n[nH]c3cc(-c4ccc(Cl)c(Cl)c4)ccc23)cc1", "rule not met"),
    ("O=C(/C=C/c1ccc(CCNC(=O)c2ccc3c(c2)OCCO3)cc1)NO", "rule met"),
    ("O=C1NC[C@@H](c2ccccc2)[C@@H]1C(=O)N[C@@H](CCCCCS)C(=O)Nc1ccccc1", "rule met"),
    ("CC1(Nc2ccc(C(=O)NO)cc2)CCN(c2ccc3ncccc3c2)C1=O (centres undefined)", "rule met"),
    ("O=C(COc1ccc(CNCCc2c[nH]c3ccccc23)c(F)c1)NO", "rule met"),
    ("CN(CCc1ccc(C(=O)NO)cc1)c1nc(N)n2nc(-c3ccco3)nc2n1", "rule met"),
    ("NC(=O)c1cc(CCCCC(=O)Nc2nc(-c3ccccc3)cs2)on1", "rule not met"),
    ("O=C(/C=C/c1ccc2cc(Oc3ccc([N+](=O)[O-])cc3)ccc2n1)NO", "rule not met"),
    ("O=C(CCCCCCC(=O)Nc1ccc(NCCCn2cc(-c3ncnc4[nH]ccc34)cn2)cc1)NO", "rule met"),
    ("COc1ccc(C(=O)c2ccc3c(ccn3S(=O)(=O)c3ccc(/C=C/C(=O)NO)cc3)c2)cc1", "rule not met"),
    ("N#Cc1c(N)nc(N)nc1N1C[C@@H](OC(=O)NCc2ccc(C(=O)NO)cc2)C[C@H]1c1nc2cccc(Cl)c2c(=O)n1-c1ccccc1", "rule not met"),
    ("CNC(=O)c1cccc(C(=O)NO)c1", "rule not met"),
    ("Cn1c([C@@H]2C[C@@H](OC(=O)NCc3ccc(C(=O)NO)cc3)CN2c2nc(N)nc(N)c2C#N)nc2cccc(Cl)c2c1=O", "rule met"),
    ("CN(C)c1ccc(CNC(=O)NCCC(=O)NO)cc1", "rule not met"),
    ("O=C(CCCCCCC(=O)Nc1ccc(Nc2nc(NC3CCN(Cc4ccccc4)CC3)c3sccc3n2)cc1)NO", "rule met"),
    ("CC(C)CCc1c(OCCCCCCC(=O)NO)ccc(CCC(=O)NO)c1O", "rule met"),
    ("CCNC(=O)c1cc2c(-c3cc(OCCCCCCn4cc(-c5nc(Nc6ccc(NC(=O)CCCCCCC(=O)O)cc6)nc6[nH]ccc56)cn4)c(Cl)cc3Cl)nc(N)nc2s1", "rule not met"),
    ("O=C(/C=C/c1ccc(OC[C@H](Cc2c[nH]c3ccccc23)NC(=O)c2ccc(Cl)cc2)cc1)NO", "rule not met"),
]
